Value source: ChEMBL document CHEMBL4311962

Test system: Mycobacterium tuberculosis
Test: Antimycobacterial activity against multidrug (ethambutol, INH and RIF)-resistant Mycobacterium tuberculosis clinical isolate 2 assessed as inhibition of bacterial growth incubated for 7 days by rapid direct susceptibility test technique
Assay type: functional
Conditions: 168 h
Catalogue of molecules with associated MIC

Worked examples, 2 molecules total:
>  <CHEMICAL STRING>
NNC(=O)c1ccncc1

>  <STUDY TARGET>
Mycobacterium tuberculosis

>  <MIC>
> 128 µg/mL

$$$$
>  <CHEMICAL STRING>
CNC(=O)c1c(-c2ccc(O)cc2)oc2ccc(O)c(CN3CCCCC3)c12

>  <STUDY TARGET>
Mycobacterium tuberculosis

>  <MIC>
< 0.06 µg/mL

$$$$

Here is another molecule to look at.
Form field MIC, entry CO[C@H]1/C=C/O[C@@]2(C)Oc3c(C)c(O)c4c(O)c(c(/C=N/N5CCN(C)CC5)c(O)c4c3C2=O)NC(=O)/C(C)=C\C=C\[C@H](C)[C@H](O)[C@@H](C)[C@@H](O)[C@@H](C)[C@H](OC(C)=O)[C@@H]1C : > 128 µg/mL
